test system: CAMA-1 (Breast Carcinoma); experiment: combination Emax (second highest fraction inhibited in the dose matrix, 72 h); higher = more inhibition; extreme values may be limits of the assay
assayMetric: combination Emax
Could you respond with only the numeric value?

Q. Give a short answer stating reported combination Emax for CN(CCO)CC[C@H](CSc1ccccc1)Nc1ccc(S(=O)(=O)NC(=O)c2ccc(N3CCC([C@@H](O)c4ccccc4-c4ccc(Cl)cc4)CC3)cc2)cc1S(=O)(=O)C(F)(F)F [AZD4320] + Cn1cnc2c(F)c(Nc3ccc(Br)cc3Cl)c(C(=O)NOCCO)cc21 [Selumetinib] (first compound max 1 µM, 7x7, partner max 3 µM) .
A. 0.468

Please find the next compound below.
Q. Give a short answer stating reported combination Emax for C[C@@H]1COCCN1c1cc(C2([S@](C)(=N)=O)CC2)nc(-c2ccnc3[nH]ccc23)n1 [AZD6738] + O=C(c1cc(Cc2n[nH]c(=O)c3ccccc23)ccc1F)N1CCN(C(=O)C2CC2)CC1 [Olaparib] (first compound max 10 µM, 7x7, partner max 10 µM) .
A. 0.322

###

tested on: P12-ICHIKAWA (T-Lymphoblastic Leukemia); assay: combination Emax (second highest fraction inhibited in the dose matrix, 72 h); higher = more inhibition; extreme values may be limits of the assay
# combination Emax per record follows
Could you respond with only the numeric value?

Look over these answered cases.
Q. Give a short answer stating reported combination Emax for CC1(C)CCC(CN2CCN(c3ccc(C(=O)NS(=O)(=O)c4ccc(NCC5CCOCC5)c([N+](=O)[O-])c4)c(Oc4cnc5[nH]ccc5c4)c3)CC2)=C(c2ccc(Cl)cc2)C1 [Venetoclax] + C[C@@H](Nc1cc(F)cc(F)c1)c1cc(C(=O)N(C)C)cc2c(=O)cc(N3CCOCC3)oc12 [AZD8186] (first compound max 1 µM, 7x7, partner max 3 µM) .
A. 0.0737

Q. Give a short answer stating reported combination Emax for NC1(C(=O)N[C@@H](CCO)c2ccc(Cl)cc2)CCN(c2ncnc3[nH]ccc23)CC1 [Capivasertib] + CCN(CCO)CCCOc1ccc2c(Nc3cc(CC(=O)Nc4cccc(F)c4)[nH]n3)ncnc2c1 [AZD2811] (first compound max 10 µM, 7x7, partner max 1 µM) .
A. 1

Q. Give a short answer stating reported combination Emax for CN(C)CCCOc1ccc(-c2ccc3ncc4c(c3c2)n(C2CCOCC2)c(=O)n4C)cn1 [AZD0156] + O=C(c1cc(Cc2n[nH]c(=O)c3ccccc23)ccc1F)N1CCN(C(=O)C2CC2)CC1 [Olaparib] (first compound max 3 µM, partner max 3 µM) .
A. 0.611

Q. Give a short answer stating reported combination Emax for CC1(C)CCC(CN2CCN(c3ccc(C(=O)NS(=O)(=O)c4ccc(NCC5CCOCC5)c([N+](=O)[O-])c4)c(Oc4cnc5[nH]ccc5c4)c3)CC2)=C(c2ccc(Cl)cc2)C1 [Venetoclax] + C[C@@H]1COCCN1C2=NC(=NC(=C2)C3(CC3)[S@](=N)(=O)C)C4=C5C=CNC5=NC=C4 [AZD6738] (first compound max 1 µM, 7x7, partner max 10 µM) .
A. 0.986

Q. Give a short answer stating reported combination Emax for Cn1cnc2c(F)c(Nc3ccc(Br)cc3Cl)c(C(=O)NOCCO)cc21 [Selumetinib] + CCN(CCO)CCCOc1ccc2c(Nc3cc(CC(=O)Nc4cccc(F)c4)[nH]n3)ncnc2c1 [AZD2811] (first compound max 10 µM, 7x7, partner max 1 µM) .
A. 1

Q. Give a short answer stating reported combination Emax for Cc1c2c(nn1C)CSCc1cc(n(C)n1)CSc1cc(c3ccccc3c1)OCCCc1c(C(=O)O)n(C)c3c-2c(Cl)ccc13 [AZD5991] + C1CN(CCC1(C(=O)N[C@@H](CCO)C2=CC=C(C=C2)Cl)N)C3=NC=NC4=C3C=CN4 [Capivasertib] (first compound max 1 µM, 7x7, partner max 3 µM) .
A. 1

Please find the next molecule below.
Q. Give a short answer stating reported combination Emax for COc1cccc(OCCCN)c1-c1cc(Nc2cnc(C#N)cn2)n[nH]1 [Prexasertib] + CCc1c2c(nc3ccc(O)cc13)-c1cc3c(c(=O)n1C2)COC(=O)[C@]3(O)CC [SN-38] (first compound max 1 µM, 7x7, partner max 0.3 µM) .
A. 1

###

system: NCI-H1792 (Lung Adenocarcinoma); assay: Bliss excess, mean over the matrix (fraction); higher = more synergy
Assign y whenever Bliss excess does not fall below 0.01; assign n whenever it does.

Q. Test whether the compound Cc1cc2ncnn2cc1Nc1ncc2c(n1)n(C1CCOCC1)c(=O)n2C [AZD7648] + CN(C)CCCOc1ccc(-c2ccc3ncc4c(c3c2)n(C2CCOCC2)c(=O)n4C)cn1 [AZD0156] (first compound max 10 µM, 7x7, partner max 1 µM) records Bliss excess of 0.01 or higher.
A. y

Q. Test whether the compound Cc1c2c(nn1C)CSCc1cc(n(C)n1)CSc1cc(c3ccccc3c1)OCCCc1c(C(=O)O)n(C)c3c-2c(Cl)ccc13 [AZD5991] + C[C@@H](Nc1cc(F)cc(F)c1)c1cc(C(=O)N(C)C)cc2c(=O)cc(N3CCOCC3)oc12 [AZD8186] (first compound max 1 µM, 7x7, partner max 3 µM) records Bliss excess of 0.01 or higher.
A. n

Q. Test whether the compound C=CCn1c(=O)c2cnc(Nc3ccc(N4CCN(C)CC4)cc3)nc2n1-c1cccc(C(C)(C)O)n1 [AZD1775] + C1CN(CCC1(C(=O)N[C@@H](CCO)C2=CC=C(C=C2)Cl)N)C3=NC=NC4=C3C=CN4 [Capivasertib] (first compound max 3 µM, partner max 3 µM) records Bliss excess of 0.01 or higher.
A. n

Q. Test whether the compound NC1(C(=O)N[C@@H](CCO)c2ccc(Cl)cc2)CCN(c2ncnc3[nH]ccc23)CC1 [Capivasertib] + CC(C)n1c(=O)n(C)c2cnc3cc(F)c(-c4ccc(OCCCN5CCCCC5)nc4)cc3c21 [AZD1390] (first compound max 10 µM, 7x7, partner max 0.3 µM) records Bliss excess of 0.01 or higher.
A. n

Moving on to another compound below.
Q. Test whether the compound N#Cc1cnc(Nc2cc(NC[C@H]3CNCCO3)c(C(F)(F)F)cn2)cn1 [SRA737] + C=CCn1c(=O)c2cnc(Nc3ccc(N4CCN(C)CC4)cc3)nc2n1-c1cccc(C(C)(C)O)n1 [AZD1775] (first compound max 10 µM, partner max 1 µM) records Bliss excess of 0.01 or higher.
A. y

###

# Bliss excess per record follows
tested on: WM-115 (Melanoma); experiment: Bliss excess, mean over the matrix (fraction); higher = more synergy

Q. Give a short answer stating reported Bliss excess for CC(=O)c1c(C)c2cnc(Nc3ccc(N4CCNCC4)cn3)nc2n(C2CCCC2)c1=O [Palbociclib] + CC1(C)CCC(CN2CCN(c3ccc(C(=O)NS(=O)(=O)c4ccc(NCC5CCOCC5)c([N+](=O)[O-])c4)c(Oc4cnc5[nH]ccc5c4)c3)CC2)=C(c2ccc(Cl)cc2)C1 [Venetoclax] (first compound max 10 µM, 7x7, partner max 1 µM) .
A. -0.0708

Q. Give a short answer stating reported Bliss excess for C=CCn1c(=O)c2cnc(Nc3ccc(N4CCN(C)CC4)cc3)nc2n1-c1cccc(C(C)(C)O)n1 [AZD1775] + CCc1c2c(nc3ccc(O)cc13)-c1cc3c(c(=O)n1C2)COC(=O)[C@]3(O)CC [SN-38] (first compound max 1 µM, partner max 0.3 µM) .
A. -0.0252

Please find the next compound below.
Q. Give a short answer stating reported Bliss excess for CCN(CCO)CCCOc1ccc2c(Nc3cc(CC(=O)Nc4cccc(F)c4)[nH]n3)ncnc2c1 [AZD2811] + C=CCn1c(=O)c2cnc(Nc3ccc(N4CCN(C)CC4)cc3)nc2n1-c1cccc(C(C)(C)O)n1 [AZD1775] (first compound max 1 µM, partner max 1 µM) .
A. -0.0562

###

test system: BFTC-905 (Bladder Carcinoma); assay: combination Emax (second highest fraction inhibited in the dose matrix, 72 h); higher = more inhibition; extreme values may be limits of the assay
assayMetric: combination Emax
Could you respond with only the numeric value?

Q. Give a short answer stating reported combination Emax for CC1(C)CCC(CN2CCN(c3ccc(C(=O)NS(=O)(=O)c4ccc(NCC5CCOCC5)c([N+](=O)[O-])c4)c(Oc4cnc5[nH]ccc5c4)c3)CC2)=C(c2ccc(Cl)cc2)C1 [Venetoclax] + Cn1cnc2c(F)c(Nc3ccc(Br)cc3Cl)c(C(=O)NOCCO)cc21 [Selumetinib] (first compound max 1 µM, 7x7, partner max 3 µM) .
A. 0.454

***
Q. Give a short answer stating reported combination Emax for COc1cccc(OCCCN)c1-c1cc(Nc2cnc(C#N)cn2)n[nH]1 [Prexasertib] + O=C(c1cc(Cc2n[nH]c(=O)c3ccccc23)ccc1F)N1CCN(C(=O)C2CC2)CC1 [Olaparib] (first compound max 1 µM, 7x7, partner max 10 µM) .
A. 0.848

###

system: MOLT-16 (T-Lymphoblastic Leukemia); assay: combination Emax (second highest fraction inhibited in the dose matrix, 72 h); higher = more inhibition; extreme values may be limits of the assay
# combination Emax per record follows

Q. Give a short answer stating reported combination Emax for CN(CCO)CC[C@H](CSc1ccccc1)Nc1ccc(S(=O)(=O)NC(=O)c2ccc(N3CCC([C@@H](O)c4ccccc4-c4ccc(Cl)cc4)CC3)cc2)cc1S(=O)(=O)C(F)(F)F [AZD4320] + C[C@@H](Nc1cc(F)cc(F)c1)c1cc(C(=O)N(C)C)cc2c(=O)cc(N3CCOCC3)oc12 [AZD8186] (first compound max 1 µM, 7x7, partner max 3 µM) .
A. 1

Q. Give a short answer stating reported combination Emax for NC1(C(=O)N[C@@H](CCO)c2ccc(Cl)cc2)CCN(c2ncnc3[nH]ccc23)CC1 [Capivasertib] + Cn1cnc2c(F)c(Nc3ccc(Br)cc3Cl)c(C(=O)NOCCO)cc21 [Selumetinib] (first compound max 10 µM, 7x7, partner max 10 µM) .
A. 0.805

***
Q. Give a short answer stating reported combination Emax for CC1(C)CCC(CN2CCN(c3ccc(C(=O)NS(=O)(=O)c4ccc(NCC5CCOCC5)c([N+](=O)[O-])c4)c(Oc4cnc5[nH]ccc5c4)c3)CC2)=C(c2ccc(Cl)cc2)C1 [Venetoclax] + CN(C)CCCOc1ccc(-c2ccc3ncc4c(c3c2)n(C2CCOCC2)c(=O)n4C)cn1 [AZD0156] (first compound max 1 µM, 7x7, partner max 1 µM) .
A. 0.699

Recorded values, source the supplement of paper PMC11061612.
